These entries and their values trace back to patent US20060194837A1.

Molecular target: Rat SERT (Rattus norvegicus)
Construct: A rat brain without cerebellum (Zivic Laboratories, Inc.—Pittsburgh, Pa.) was homogenized; tissue Zivic Laboratories, Inc; host or cells: rat brain without cerebellum, membranes
Sequence (P31652 whole entry): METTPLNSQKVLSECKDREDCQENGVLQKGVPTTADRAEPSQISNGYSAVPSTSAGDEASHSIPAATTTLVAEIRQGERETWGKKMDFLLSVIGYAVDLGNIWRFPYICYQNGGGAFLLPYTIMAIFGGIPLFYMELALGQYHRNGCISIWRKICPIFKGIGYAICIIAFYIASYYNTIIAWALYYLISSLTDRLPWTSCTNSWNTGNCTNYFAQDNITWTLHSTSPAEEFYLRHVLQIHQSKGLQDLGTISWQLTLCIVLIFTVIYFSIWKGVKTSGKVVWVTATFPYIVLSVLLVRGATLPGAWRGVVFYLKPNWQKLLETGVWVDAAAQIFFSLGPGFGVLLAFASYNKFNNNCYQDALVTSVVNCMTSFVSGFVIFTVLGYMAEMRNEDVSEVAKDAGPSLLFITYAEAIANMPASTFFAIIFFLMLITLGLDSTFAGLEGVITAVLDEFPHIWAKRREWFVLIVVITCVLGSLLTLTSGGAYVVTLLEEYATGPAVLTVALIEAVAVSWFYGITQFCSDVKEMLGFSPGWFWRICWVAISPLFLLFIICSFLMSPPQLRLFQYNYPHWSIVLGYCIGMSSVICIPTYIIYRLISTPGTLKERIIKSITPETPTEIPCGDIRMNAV
Assay: Rat brain SERT binding ([3H]-citalopram displacement)
Details: rat brain membranes without cerebellum, 0.6 nM [3H]-citalopram, 60 min at 25° C.; read-out: Rat SERT Ki
pKi: −log10 of the molar value.
measured-endpoint: pKi

Worked examples follow.
{"molecule": "COc1ccc(C2CN(C)Cc3cc(OCCC4CCCN4C)ccc32)cc1 (mixture of isomers) [Example 240]", "reported-result": 8.52}
{"molecule": "COc1ccc(C2CN(C)Cc3cc(OCC4CCNCC4)ccc32)cc1Cl (stereo not shown)", "reported-result": 8.30}
{"molecule": "COc1cccc(C2CN(C)Cc3cc(OCC4CCN(C5CCCC5)CC4)ccc32)c1 (stereo not shown)", "reported-result": 7.82}
{"molecule": "CCCN1CCC(Oc2ccc3c(c2)CN(C)CC3c2cccc(OC)c2)CC1 (stereo not shown)", "reported-result": 7.89}
{"molecule": "COc1ccc(C2CN(C)Cc3cc(OCCCN4CCN(C5CC5)CC4)ccc32)cc1 (stereo not shown)", "reported-result": 8.05}
{"molecule": "C#Cc1ccc(C2CN(C)Cc3cc(OCCCN4CCC(F)CC4)ccc32)cn1 (stereo not shown)", "reported-result": 6.92}
{"molecule": "COc1ccc(C2CNCc3cc(OCCCN4CCCCC4)ccc32)cc1 (stereo not shown)", "reported-result": 8.05}
{"molecule": "COc1ccc(C2CN(C)Cc3cc(OCCCN4CCC5(CC4)OCCO5)ccc32)cc1 (stereo not shown)", "reported-result": 8.22}

A = COc1ccc(C2CN(C)Cc3cc(OCC4CCN(C5CCC5)CC4)ccc32)cc1F (stereo not shown)
B = COc1ccc(C2CN(C)Cc3cc(OCCCN4CCOCC4)c(C)cc32)cc1 (stereo not shown)
Query: Just tell me: smaller pKi value, A or B ? Which one? Tell me its label.
Result: B

A = COc1ccc(C2CN(C)Cc3cc(OCCCN4CCC(F)(F)CC4)ccc32)cc1 (stereo not shown)
B = COCCN(CCCOc1ccc2c(c1)CN(C)CC2c1ccc(OC)cc1)CCOC (stereo not shown)
Query: Just tell me: smaller pKi value, A or B ? Which one? Tell me its label.
Result: B
(B: 8.00, A: 8.22)
